- measurementParameters: PAMPA, pH 7.4
hey, just use true (1) if measured Pm^7.4 is less than 10, otherwise false (0)

Completed entries (count: 4):
{"columns": ["compound", "labelValue"],
 "data": [
  ["CC[C@]1(O)C[C@H]2CN(CCc3c([nH]c4ccccc34)[C@@](C(=O)OC)(c3cc4c(cc3OC)N(C=O)[C@H]3[C@@](O)(C(=O)OC)[C@H](OC(C)=O)[C@]5(CC)C=CCN6CC[C@]43[C@@H]65)C2)C1 [Vincristine]", "false (0)"],
  ["NC(=O)N1c2ccccc2C=Cc2ccccc21 [Carbamazepine]", "false (0)"],
  ["CN(C)CCC=C1c2ccccc2CCc2ccccc21 [Amitriptyline]", "false (0)"],
  ["CCC1(C)CC(=O)NC1=O (centres unmarked) [Ethosuximide]", "true (1)"]
]}

Now let's try a different one.
Determine if O=c1c(O)c(-c2ccc(O)c(O)c2)oc2cc(O)cc(O)c12 [Quercetin] shows Pm^7.4 strictly lower than 10. true (1)

###

- measurementParameters: PAMPA
Entries and their log Ppara
Just the number, please, no unit after it.

Look over these answered cases.
{"columns": ["compound", "log Ppara"],
 "data": [
  ["CNCC[C@@H](Oc1ccccc1C)c1ccccc1 [Atomoxetine]", "−6.10"],
  ["O=c1n(CCCN2CCN(c3cccc(Cl)c3)CC2)nc2ccccn12 [Trazodone]", "−5.99"],
  ["CCC1(C)CC(=O)NC1=O (stereo not drawn) [Ethosuximide]", "−6.87"]
]}

Which log Ppara reading was recorded for the compound O=c1c(O)c(-c2ccc(O)c(O)c2)oc2cc(O)cc(O)c12 [Quercetin] ? −6.87

Which log Ppara reading was recorded for the compound OCCOCCN1CCN(C(c2ccccc2)c2ccc(Cl)cc2)CC1 (stereo not drawn) [Hydroxyzine] ? −8

Which log Ppara reading was recorded for the compound CCCN1C[C@H](CSC)C[C@@H]2c3cccc4[nH]cc(c34)C[C@H]21 [Pergolide] ? −6.20

Which log Ppara reading was recorded for the compound COc1cc([C@@H]2c3cc4c(cc3[C@@H](O[C@@H]3O[C@@H]5CO[C@@H](C)O[C@H]5[C@H](O)[C@H]3O)[C@H]3COC(=O)[C@H]23)OCO4)cc(OC)c1O [Etoposide] ? −6.85

###

- methodDescription: In combo PAMPA-BBB model, calculated log Po in situ
- measurementParameters: no efflux inhibition
measure: obs–calc (log Po^in situ)
Just the number, please, no unit after it.

{"columns": ["compound", "value"],
 "data": [
  ["CCCN1C[C@H](CSC)C[C@@H]2c3cccc4[nH]cc(c34)C[C@H]21 [Pergolide]", 0.4]
]}

Pending compound:
Which obs–calc (log Po^in situ) reading was recorded for the compound OCCOCCN1CCN(C(c2ccccc2)c2ccc(Cl)cc2)CC1 (centres unmarked) [Hydroxyzine] ? 0.7

###

- methodDescription: In combo PAMPA-BBB model, calculated log Po in situ
- measurementParameters: difference observed minus calculated, external set, no efflux inhibition
measure: obs–calc (log Po^in situ)
Just the number, please, no unit after it.

Look over these answered cases.
{"columns": ["compound", "value"],
 "data": [
  ["OCCOCCN1CCN(C2=Nc3ccccc3Sc3ccccc32)CC1 [Quetiapine]", 0.2],
  ["CC(C)(C)NC(=O)[C@@H]1CN(Cc2cccnc2)CCN1C[C@@H](O)C[C@@H](Cc1ccccc1)C(=O)N[C@H]1c2ccccc2C[C@H]1O [Indinavir]", "−0.4"],
  ["CC(C)(C)NC(=O)[C@@H]1C[C@@H]2CCCC[C@@H]2CN1C[C@@H](O)[C@H](Cc1ccccc1)NC(=O)[C@H](CC(N)=O)NC(=O)c1ccc2ccccc2n1 [Saquinavir]", "−0.1"]
]}

Which obs–calc (log Po^in situ) reading was recorded for the compound CC(C)(C)c1ccc(C(O)CCCN2CCC(C(O)(c3ccccc3)c3ccccc3)CC2)cc1 (stereo not shown) [Terfenadine] ? −0.9

Which obs–calc (log Po^in situ) reading was recorded for the compound NNCCc1ccccc1 [Phenelzine] ? −1.9

Which obs–calc (log Po^in situ) reading was recorded for the compound Cn1cnc2c1c(=O)[nH]c(=O)n2C [Theobromine] ? 1.1

Which obs–calc (log Po^in situ) reading was recorded for the compound CC(=O)O[C@H]1C(=O)[C@@]2(C)[C@H]([C@H](OC(=O)c3ccccc3)[C@]3(O)C[C@H](OC(=O)[C@H](O)[C@@H](NC(=O)c4ccccc4)c4ccccc4)C(C)=C1C3(C)C)[C@]1(OC(C)=O)CO[C@@H]1C[C@@H]2O [Paclitaxel] ? −1.9

###

- methodDescription: Charge class Q, dominant calculated charge state at pH 7.4
- Type: physicochemical
- measurementParameters: dominant calculated concentration fraction of the drug in a charge state
measure: Q (charge class)

Look over these answered cases.
{"columns": ["compound", "measure", "value"],
 "data": [
  ["CCCN(CCC)S(=O)(=O)c1ccc(C(=O)O)cc1", "Q (charge class)", "−"],
  ["O=C1CC2(CCCC2)CC(=O)N1CCCCN1CCN(c2ncccn2)CC1", "Q (charge class)", "+"],
  ["O=C(CCCN1CCC(O)(c2ccc(Cl)cc2)CC1)c1ccc(F)cc1", "Q (charge class)", "+"],
  ["O=c1n(CCCN2CCN(c3cccc(Cl)c3)CC2)nc2ccccn12", "Q (charge class)", 0],
  ["Clc1ccc2c(c1)C(N1CCNCC1)=Nc1ccccc1O2", "Q (charge class)", "+"],
  ["CN(C)CCOC(c1ccccc1)c1ccccc1 [Diphenhydramine]", "Q (charge class)", "+"],
  ["CN(Cc1cnc2nc(N)nc(N)c2n1)c1ccc(C(=O)N[C@@H](CCC(=O)O)C(=O)O)cc1 [Methotrexate]", "Q (charge class)", "±"],
  ["C[C@]12C[C@H](O)[C@H]3[C@@H](CCC4=CC(=O)CC[C@@]43C)[C@@H]1CC[C@@H]2C(=O)CO", "Q (charge class)", 0],
  ["CN1CCCCC1CCN1c2ccccc2Sc2ccc([S+](C)[O-])cc21 (stereo not drawn)", "Q (charge class)", "+"],
  ["CC(C)(C)NC(=O)[C@@H]1CN(Cc2cccnc2)CCN1C[C@@H](O)C[C@@H](Cc1ccccc1)C(=O)N[C@H]1c2ccccc2C[C@H]1O", "Q (charge class)", 0]
]}

Which Q (charge class) reading was recorded for the compound CC(=O)CC(c1ccccc1)c1c(O)c2ccccc2oc1=O (stereo not drawn) ? −

Which Q (charge class) reading was recorded for the compound COc1ccc(Cl)cc1C(=O)NCCc1ccc(S(=O)(=O)NC(=O)NC2CCCCC2)cc1 [Glibenclamide] ? −

Which Q (charge class) reading was recorded for the compound COc1cc([C@@H]2c3cc4c(cc3[C@@H](O[C@@H]3O[C@@H]5CO[C@@H](C)O[C@H]5[C@H](O)[C@H]3O)[C@H]3COC(=O)[C@H]23)OCO4)cc(OC)c1O [Etoposide] ? 0

Which Q (charge class) reading was recorded for the compound `Cn1cnc2c1c(=O)[nH]c(=O)n2C` ? 0

###

Entries and their log Ppara
- measurementParameters: PAMPA
Just the number, please, no unit after it.

{"columns": ["compound", "log Ppara"],
 "data": [
  ["O=C(O)CCCc1ccc(N(CCCl)CCCl)cc1 [Chlorambucil]", "−7.16"]
]}

Which log Ppara reading was recorded for the compound CC(C(=O)O)c1ccc(-c2ccccc2)c(F)c1 (stereo not shown) [Flurbiprofen] ? −6.99

Which log Ppara reading was recorded for the compound NC(=O)N1c2ccccc2C=Cc2ccccc21 [Carbamazepine] ? −6.09

Which log Ppara reading was recorded for the compound CN(C)CCC=C1c2ccccc2COc2ccccc21 [Doxepin] ? −6.47

Which log Ppara reading was recorded for the compound CN1CCCCC1CCN1c2ccccc2Sc2ccc([S+](C)[O-])cc21 (stereo not shown) [Mesoridazine] ? −6.21

Which log Ppara reading was recorded for the compound OCCN1CCN(CCCN2c3ccccc3Sc3ccc(C(F)(F)F)cc32)CC1 [Fluphenazine] ? −5.54

Which log Ppara reading was recorded for the compound CCCN(CCC)S(=O)(=O)c1ccc(C(=O)O)cc1 [Probenecid] ? −6.10

###

- measurementParameters: PAMPA, pH 7.4
measure: Pm^7.4

Which Pm^7.4 reading was recorded for the compound CN/C(=N/CCSCc1nc[nH]c1C)NC#N [Cimetidine] ? 0.4

Which Pm^7.4 reading was recorded for the compound CC(C)(C)NC(=O)[C@@H]1C[C@@H]2CCCC[C@@H]2CN1C[C@@H](O)[C@H](Cc1ccccc1)NC(=O)[C@H](CC(N)=O)NC(=O)c1ccc2ccccc2n1 [Saquinavir] ? 114

###

- methodDescription: Charge class Q, dominant calculated charge state at pH 7.4
- Type: physicochemical
measure: Q (charge class)

Look over these answered cases.
{"columns": ["compound", "Q (charge class)"],
 "data": [
  ["COc1ccc2c3c1O[C@H]1[C@@H](O)C=C[C@H]4[C@@H](C2)N(C)CC[C@@]341", "+"],
  ["CN1C(=O)CN=C(c2ccccc2)c2cc(Cl)ccc21", 0],
  ["CCC12CCN(CC3(O)CC3)C(Cc3ccc(O)cc31)C2(C)C (stereo not drawn)", "+"],
  ["COc1ccc2c3c1O[C@H]1C[C@@H](O)C=C[C@@]31CCN(C)C2", "+"],
  ["CN(C)C(=O)C(CCN1CCC(O)(c2ccc(Cl)cc2)CC1)(c1ccccc1)c1ccccc1 [Loperamide]", "+"]
]}

Pending compound:
Which Q (charge class) reading was recorded for the compound `Cc1nc2n(c(=O)c1CCN1CCC(c3noc4cc(F)ccc34)CC1)CCCC2` ? +

Origin of values: paper PMC3034772
